Where do these numbers come from? They come from the supplement of paper PMC10567573.

B1: PKD2L1 (parent)
chain: SGPEAARAGGWVSGEEFYMLTRRV

Variants of: B1
Test: protein stability index of a GFP-peptide fusion (GPS, HEK-293T) (PSI 1-6); higher = more stable;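 note: lentivirally expressed fusions sorted by FACS into six bins by GFP to DsRed ratio, PSI derived from sequencing read proportions per bin multiplied by bin number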
Conditions: c terminus: a fixed tail appended
Binary classification by protein stability index, with 2 as an inclusive lower bound for TRUE; all other cases are FALSE.

- mutant.code: "L20C"
  group.label: "TRUE"
- mutant.code: "L20M"
  group.label: "TRUE"
- mutant.code: "W11T"
  group.label: "TRUE"
- mutant.code: "S1Q"
  group.label: "TRUE"
- mutant.code: "G2F"
  group.label: "FALSE"
- mutant.code: "G14N"
  group.label: "TRUE"
- mutant.code: "V24N"
  group.label: "TRUE"
- mutant.code: "A6R"
  group.label: "TRUE"
- mutant.code: "W11D"
  group.label: "TRUE"
- mutant.code: "M19P"
  group.label: "TRUE"
- mutant.code: "Y18I"
  group.label: "TRUE"
- mutant.code: "Y18L"
  group.label: "TRUE"
- mutant.code: "S13I"
  group.label: "FALSE"
- mutant.code: "S1E"
  group.label: "TRUE"
- mutant.code: "T21C"
  group.label: "TRUE"
- mutant.code: "A8H"
  group.label: "FALSE"
- mutant.code: "W11I"
  group.label: "TRUE"
- mutant.code: "G2M"
  group.label: "TRUE"
- mutant.code: "P3T"
  group.label: "TRUE"
- mutant.code: "W11M"
  group.label: "TRUE"
- mutant.code: "S1D"
  group.label: "TRUE"
- mutant.code: "Y18M"
  group.label: "TRUE"
- mutant.code: "R23Y"
  group.label: "TRUE"
- mutant.code: "A5Q"
  group.label: "TRUE"
- mutant.code: "V24Y"
  group.label: "TRUE"
- mutant.code: "A6W"
  group.label: "FALSE"
- mutant.code: "G2S"
  group.label: "TRUE"
- mutant.code: "V12F"
  group.label: "TRUE"
- mutant.code: "Y18H"
  group.label: "TRUE"
- mutant.code: "G2D"
  group.label: "TRUE"
- mutant.code: "A8V"
  group.label: "TRUE"
- mutant.code: "V24F"
  group.label: "FALSE"
- mutant.code: "V24P"
  group.label: "TRUE"
- mutant.code: "E16V"
  group.label: "FALSE"
- mutant.code: "L20H"
  group.label: "TRUE"
- mutant.code: "M19E"
  group.label: "TRUE"
- mutant.code: "P3V"
  group.label: "TRUE"
- mutant.code: "G9L"
  group.label: "TRUE"
- mutant.code: "T21V"
  group.label: "FALSE"
- mutant.code: "P3A"
  group.label: "TRUE"
- mutant.code: "L20W"
  group.label: "FALSE"
- mutant.code: "Y18E"
  group.label: "TRUE"
